Test system: CAKI-1 renal
assay procedure: NCI-60 one-dose screen, 48 h
assay context: 10 µM unless noted
About 83,000 compounds went through this panel and 20% of them were active in at least one assay; those are over-represented in the sample as a whole. Active and inactive are the calls of the source. How the source made its calls: active means growth percent below 10; inactive means the rest.
Outcome codes: active, inactive

smiles_record=OCc1ccc(N2CCc3cccc(F)c3C2)cc1Cl class=inactive
smiles_record=Cc1ccc(OC(=O)c2ccc(Cl)cc2)cc1 class=inactive
smiles_record=Cc1oc(-c2ccc(Cl)cc2Cl)cc1C(=O)Nc1nccs1 class=inactive
smiles_record=COc1ccc(-c2nc3ccc(-c4nc5ccc(N6CCN(C)CC6)cc5[nH]4)cc3[nH]2)cc1OC class=inactive
smiles_record=CCN(CC)S(=O)(=O)c1ccc(OC)c(NC(=O)c2[nH]c(C)c3c2CCCCC3=O)c1 class=inactive
smiles_record=COc1cccc(-c2nc3sccn3c2-c2ccnc(NCCCNS(=O)(=O)c3cccc(F)c3)c2)c1 class=inactive
smiles_record=c1ccc2[nH]c(-c3ccc(Nc4nc(N5CCCC5)nc5[nH]ncc45)cc3)nc2c1 class=active
smiles_record=O=C(COc1ccc(/C=C2\COc3ccccc3C2=O)cc1)Nc1nccs1 class=inactive
smiles_record=COc1ccc(-n2nc(C)c3c(Nc4ccc(NC(=O)Nc5c(Cl)cccc5Cl)cc4)ncnc32)cc1 class=inactive
smiles_record=C(=C\c1nccc2c1[nH]c1ccccc12)/c1ccccc1 class=active

---

Tested on: 786-0 renal
assay procedure: NCI-60 one-dose screen, 48 h
assay context: 10 µM unless noted
The panel holds about 83,000 compounds, 20% with a hit somewhere; the sample as a whole holds those more often. Active and inactive are the calls of the source. The calls were made as follows: active = growth percent below 10; inactive = the rest.
Outcome codes: yes for active, no for inactive

molecule="Nc1n[nH]c2cc(F)c([C@@H]3Nc4ccc5[nH]ncc5c4[C@H]4C5CCC(C5)[C@@H]34)cc12 (stereo not given in full)" class=no
molecule=Nc1ccn(-c2ccc(Br)cc2)c(=O)n1 class=no
molecule=Cc1nc(/N=C(\N)NC(=O)Nc2cccc([N+](=O)[O-])c2)sc1C class=no
molecule=O=C1c2cc3c(cc2-c2c1c1cc(F)c(F)cc1c(=O)n2CCCn1ccnc1)OCO3 class=yes
molecule=CCN1CCN(c2nc(NCCCNc3ccnc4cc(Cl)ccc34)c3ccccc3n2)CC1 class=no

---

Test system: UACC-257 melanoma
assay procedure: NCI-60 one-dose screen, 48 h
assay context: 10 µM unless noted
This is part of a sample that, as a whole, favours compounds with a hit. Of some 83,000 tested, about 20% had one in any assay. Active and inactive are the calls of the source. How the source made its calls: active means growth percent below 10; inactive means the rest.
Outcome codes: active, inactive

molecule=COc1cc(/C=C/C(=O)c2c(C)oc3nc[nH]c(=O)c23)cc(OC)c1OC class=inactive
molecule=Cc1cc(C)c2nc3nc(C)cc(C)c3c(N)c2c1 class=inactive
molecule=CC1=NN(c2nc(-c3ccc(Cl)cc3)c(C#N)c(N3CCOCC3)n2)C(=O)C1 class=inactive
molecule=Fc1ccc2[nH]cc(SSc3c[nH]c4ccc(F)cc34)c2c1 class=inactive
molecule=Oc1cccc2ccc(N/N=C/c3cc(CN4CCOCC4)c(O)c4ncccc34)nc12 class=inactive
molecule="O=C1Nc2ccc(Br)cc2C12Oc1ccccc1C1CC(c3ccc(F)cc3)=NN12 (configuration not stated)" class=inactive
molecule=C=C1C(=O)O[C@H]2[C@H]1CC/C(COC(=O)c1cc3cc(OC)ccc3[nH]1)=C\CC[C@@]1(C)O[C@@H]21 class=active
molecule="CON1C(=O)CC[C@]2(C)[C@H]3CC[C@@H]4C([C@@]5(C)CCC(=O)O5)CC[C@@]4(C)[C@]3(C)CC[C@H]2C1(C)C (some centres not stated)" class=inactive
molecule=CCCOc1cc2ccccc2cc1C(=O)Nc1nc(N)c2c(ccc3nccc32)[nH]1 class=active
molecule=COc1cc(/C=C/C(=O)Nc2cccnc2Nc2ccc(F)cc2)cc(OC)c1OC class=inactive
molecule=Cn1ccnc1C(=O)/C=C/c1ccccc1 class=inactive
molecule=COc1ccc(N=Nc2nccs2)c(O)c1 class=inactive
molecule=N#CCCN=Nc1c(O)[nH]c2ccc([N+](=O)[O-])cc12 class=inactive
molecule="Cn1nc(N)c2cc([C@@H]3Nc4ccc5[nH]ncc5c4[C@H]4C5CCC(C5)[C@@H]34)ccc21 (some centres not stated)" class=inactive
molecule=Cc1cn2c(/C=C3/C(=O)Nc4c3ccc3ccccc43)c(C(F)(F)F)nc2s1 class=inactive
molecule=COc1cc(-c2nn(-c3ccc(C(=O)O)cc3)cc2C(=O)O)ccc1O class=inactive
molecule=CCCCC/C(C=C(C#N)C#N)=C/c1ccccc1 class=inactive
molecule=O=S(=O)(Nc1ccc(I)cc1F)c1ccc(-c2cnc(C3CC3)o2)cc1 class=inactive
molecule=O=C(/C=C/c1cccc(Cl)c1)c1ccc(O)c(CN2CCN(c3cc4c(cc3F)c(=O)c(C(=O)O)cn4C3CC3)CC2)c1 class=inactive
molecule=O=C1/C(=C/c2ccc(Cl)cc2)SC(=S)N1CCc1ccc(O)cc1 class=inactive
molecule="CCc1nc(N)nc(N)c1C#CC(C)c1ccc(-c2ccncc2)cc1Cl (configuration not stated)" class=inactive
molecule=CN(C)c1ccc(N=Nc2ccccn2)c(O)c1 class=active
molecule="CCOc1cc2ncc(C#N)c(Nc3ccc(OCc4cccc(F)c4)c(Cl)c3)c2cc1NC(=O)CC1CCSS1 (configuration not stated)" class=inactive
molecule="CCC([N+](=O)[O-])S(=O)(=O)c1ccc(C)cc1 (configuration not stated)" class=inactive
molecule=O=C(COc1cccc(/C=C2\COc3ccc(Cl)cc3C2=O)c1)c1ccc(Cl)cc1 class=inactive
molecule=COc1cc(/C=C/c2cc(/C=C/c3ccc(O)c(OC)c3)n(-c3c(Cl)cccc3Cl)c(=O)n2)ccc1O class=inactive
molecule=CCOC(=O)c1sc(Nc2ccc(Cl)cc2)nc1C class=active
molecule=O=S(=O)(Nc1ccc(Cl)c(F)c1)c1ccc(-c2cnc(C3CC3)o2)cc1 class=inactive
molecule="CC1C(/C=N/Nc2ccccc2)C(C#N)(C#N)C1(C#N)C#N (configuration not stated)" class=inactive
molecule=O=C(/C=C/C=C/c1ccc2c(c1)OCO2)N/N=C\c1ccc(O)cc1O class=inactive
molecule=COc1ccc(O)c(N=Nc2nccs2)c1 class=inactive
molecule=CSc1ccc(-c2ccccc(=O)c2O)cc1 class=active
molecule=COC[C@H](C)n1c(C2CCOCC2)nc2cnc3cc(-c4c(C)noc4C)c(OC)cc3c21 class=inactive
molecule=C=C1c2nc3ccccc3n2C=C(c2ccc(OC)cc2)N1Cc1ccccc1 class=inactive
molecule="COc1ccc(SC2c3ccc(C)cc3Oc3nc(N)c(C#N)c(N)c32)cc1 (configuration not stated)" class=active
molecule="OC(c1cc2cc(Cl)c(Cl)cc2c2cc(C(F)(F)F)ccc12)C1CCCCN1 (configuration not stated)" class=active
molecule=CCCOc1ccc2nc(NC(=O)OC)[nH]c2c1 class=inactive
molecule=O=C(Cc1ccc(/C=C/C(=O)c2ncc[nH]2)cc1)Nc1ccccc1 class=inactive
molecule="Nc1n[nH]c2ccc([C@@H]3Nc4cc5c(cc4[C@H]4C6CCC(C6)[C@@H]34)C(=O)NC5)cc12 (some centres not stated)" class=inactive
molecule=CCCCn1cnc2c(Sc3c([N+](=O)[O-])ncn3C)nc(N)nc21 class=inactive
molecule=COc1ccc(Nc2nc(SC)nc(-c3cccc([N+](=O)[O-])c3)c2C#N)cc1 class=inactive
molecule=C#CCOc1ccc2ncnc(Nc3cccc(CNC(=O)CCl)c3)c2c1 class=inactive
